# Tested on: IL-1β mRNA expression
# experimentalDetails: Inhibition of LPS-induced IL-1β mRNA expression in HUVEC
# Format: cell-based, Human
# conditionLabel: 10 μM for 30 min, then LPS 24 hours
A collection of compounds and their measured inhibition of LPS-induced mRNA expression of IL-1β
recordedMetric: inhibition of LPS-induced mRNA expression of IL-1β

compound: Cc1c(C)c2c(c(C)c1O)CC[C@@](C)(C(=O)N1CCN(CCO)CC1)O2
endpointResult: 76.3 ± 7.9 %
--
compound: COC(=O)CNC(=O)C1(C)CCc2c(C)c(O)c(C)c(C)c2O1 (stereo not drawn) [SUL-99, reference compound]
endpointResult: 31.5 ± 4.5 %
--
compound: Cc1c(C)c(O)c(CC[C@@](C)(O)C(=O)N2CCN(CCO)CC2)c(C)c1O
endpointResult: 51.7 ± 8.0 %
--
compound: Cc1c(C)c2c(c(C)c1O)CC[C@](C)(C(=O)N1CCNCC1)O2
endpointResult: 78.9 ± 6.0 %
--
compound: Cc1c(C)c2c(c(C)c1O)CC[C@@](C)(C(=O)N1CCNCC1)O2
endpointResult: 76.7 ± 1.2 %
--
compound: Cc1c(C)c2c(c(C)c1O)CC[C@@](C)(C(=O)N[C@@H]1CCCNC1)O2
endpointResult: 38.6 ± 4.2 %

====

A collection of compounds and their measured inhibition of LPS-induced mRNA expression of IL-1β
# Test system: IL-1β mRNA expression
# experimentalDetails: Inhibition of LPS-induced IL-1β mRNA expression in NRK52E
# Assay type: cell-based, Rat
# conditionLabel: 10 μM for 30 min, then LPS 24 hours
# Procedure: Rat kidney epithelial cells (ATCC #CRL-1571) were maintained in DMEM medium containing 10% fetal bovine serum, and 1% Penicillin-Streptomycin solution (Sigma-Aldrich). NRK52E cells were passaged by trypsinization when the cultures reached a confluency of 70%. For all experiments, NRK52E cells were seeded at 0.6·10^5 cells/cm^2 and allowed to adhere for 24 hours. […]
recordedMetric: inhibition of LPS-induced mRNA expression of IL-1β (%)

compound: Cc1c(C)c2c(c(C)c1O)CCC(C)(C(=O)N[C@H](CO)c1ccccc1)O2 (some centres unmarked) [SUL-129]
endpointResult: 75.9
//
compound: Cc1c(C)c2c(c(C)c1O)CC[C@@](C)(C(=O)N1CCN(CCO)CC1)O2 [SUL-138]
endpointResult: 65.2
//
compound: Cc1c(C)c2c(c(C)c1O)CCC(C)(C(=O)NCc1ccccc1)O2 (centres unmarked) [SUL-96]
endpointResult: 81.7
//
compound: Cc1c(C)c2c(c(C)c1O)CCC(C)(C(=O)Nc1ccccc1)O2 (centres unmarked) [SUL-103]
endpointResult: 59.2
//
compound: Cc1c(C)c2c(c(C)c1O)CCC(C)(C(N)=O)O2 (centres unmarked) [SUL-89, reference compound]
endpointResult: 12.3

====

A collection of compounds and their measured inhibition of LPS-induced mRNA expression of TNFα
# System: TNFα mRNA expression
# experimentalDetails: Inhibition of LPS-induced TNFα mRNA expression in HUVEC
# Assay type: cell-based, Human
# conditionLabel: 10 μM for 30 min, then LPS 24 hours
recordedMetric: inhibition of LPS-induced mRNA expression of TNFα (%)

compound: Cc1c(C)c2c(c(C)c1O)CC[C@@](C)(C(=O)N1CCN(CCO)CC1)O2
unitDescriptor: %
endpointResult: 81.4
//
compound: Cc1c(C)c(O)c(CC[C@@](C)(O)C(=O)N2CCN(CCO)CC2)c(C)c1O
unitDescriptor: %
endpointResult: 58.1
//
compound: Cc1c(C)c2c(c(C)c1O)CC[C@@](C)(C(=O)N1CCNCC1)O2
unitDescriptor: %
endpointResult: 72.5
//
compound: COC(=O)CNC(=O)C1(C)CCc2c(C)c(O)c(C)c(C)c2O1 (stereo not drawn) [SUL-99, reference compound]
unitDescriptor: %
endpointResult: 35.1
//
compound: Cc1c(C)c2c(c(C)c1O)CC[C@@](C)(C(=O)N[C@@H]1CCCNC1)O2
unitDescriptor: %
endpointResult: 41.2
//
compound: Cc1c(C)c2c(c(C)c1O)CC[C@](C)(C(=O)N1CCNCC1)O2
unitDescriptor: %
endpointResult: 79.8

====

# Tested on: IL-6 mRNA expression
# experimentalDetails: Inhibition of LPS-induced IL-6 mRNA expression in NRK52E
# Format: cell-based, Rat
# conditionLabel: 10 μM for 30 min, then LPS 24 hours
Please note: Yes applies when inhibition of LPS-induced mRNA expression of IL-6 is 60% or greater, and No applies otherwise.

molecule: Cc1c(C)c2c(c(C)c1O)CCC(C)(C(=O)Nc1ccccc1)O2 (stereo not drawn)
group: Yes
--
molecule: Cc1c(C)c2c(c(C)c1O)CC[C@@](C)(C(=O)N1CCN(CCO)CC1)O2
group: Yes
--
molecule: Cc1c(C)c2c(c(C)c1O)CCC(C)(C(=O)N[C@H](CO)c1ccccc1)O2 (stereo partly drawn)
group: Yes
--
molecule: Cc1c(C)c2c(c(C)c1O)CCC(C)(C(N)=O)O2 (stereo not drawn) [SUL-89, reference compound]
group: No
--
molecule: Cc1c(C)c2c(c(C)c1O)CCC(C)(C(=O)NCc1ccccc1)O2 (stereo not drawn)
group: Yes
--
molecule: Cc1c(C)c2c(c(C)c1O)CC[C@@](C)(C(=O)N1CCNCC1)O2
group: Yes
